pIC50 values by entry
# STUDY TARGET: Platelet-derived growth factor receptor beta (Homo sapiens, UniProt P09619)
# Sequence (P09619 whole entry): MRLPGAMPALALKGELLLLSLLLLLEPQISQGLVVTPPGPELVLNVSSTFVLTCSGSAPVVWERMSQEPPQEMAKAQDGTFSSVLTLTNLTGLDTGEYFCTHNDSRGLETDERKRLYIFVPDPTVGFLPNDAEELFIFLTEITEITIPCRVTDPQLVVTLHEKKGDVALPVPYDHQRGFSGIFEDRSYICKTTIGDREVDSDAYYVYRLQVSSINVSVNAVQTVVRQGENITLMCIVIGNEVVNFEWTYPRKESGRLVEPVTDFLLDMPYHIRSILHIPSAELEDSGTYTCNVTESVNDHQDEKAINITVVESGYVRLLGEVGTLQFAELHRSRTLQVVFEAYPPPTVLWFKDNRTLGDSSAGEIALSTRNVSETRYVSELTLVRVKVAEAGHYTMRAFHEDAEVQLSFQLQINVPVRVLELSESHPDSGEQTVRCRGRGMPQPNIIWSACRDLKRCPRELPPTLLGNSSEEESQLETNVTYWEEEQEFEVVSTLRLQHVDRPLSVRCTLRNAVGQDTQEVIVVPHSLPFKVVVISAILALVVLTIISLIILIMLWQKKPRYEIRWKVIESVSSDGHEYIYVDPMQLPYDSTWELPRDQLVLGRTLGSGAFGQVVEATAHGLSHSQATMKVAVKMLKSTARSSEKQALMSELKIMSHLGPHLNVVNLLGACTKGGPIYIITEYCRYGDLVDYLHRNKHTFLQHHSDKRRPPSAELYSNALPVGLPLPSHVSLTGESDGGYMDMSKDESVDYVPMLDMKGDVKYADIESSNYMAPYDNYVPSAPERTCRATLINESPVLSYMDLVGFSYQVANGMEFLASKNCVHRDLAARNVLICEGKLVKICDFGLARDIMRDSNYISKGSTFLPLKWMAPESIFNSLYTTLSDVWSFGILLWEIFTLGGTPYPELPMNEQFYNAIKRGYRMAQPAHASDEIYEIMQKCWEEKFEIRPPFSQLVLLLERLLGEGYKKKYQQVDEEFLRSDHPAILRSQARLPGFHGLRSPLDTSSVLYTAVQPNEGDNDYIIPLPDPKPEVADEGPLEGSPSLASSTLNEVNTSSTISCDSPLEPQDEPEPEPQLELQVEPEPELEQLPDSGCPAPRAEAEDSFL
# MEASUREMENT NOTES: Inhibition of recombinant PDGFRbeta (unknown origin) using Poly(Glu:Tyr)4:1 after 60 mins by ELISA
pIC50: −log10 of the molar value.

- COMPOUND: "O=C(/C=C/CN1CC2CCC1C(=O)C2)Nc1cc2c(Nc3ccc(F)c(Cl)c3)ncnc2s1 (configuration not stated)"
  pIC50: "< 5.00"

Lab note: next compound to report on.
Asked: Which pIC50 value is on record for "C=CC(=O)Nc1cc2c(Nc3ccc(F)c(Cl)c3)ncnc2s1" ?
Given back: < 5.00

---

# STUDY TARGET: Proto-oncogene tyrosine-protein kinase receptor Ret (Homo sapiens)
# Sequence (P07949 whole entry): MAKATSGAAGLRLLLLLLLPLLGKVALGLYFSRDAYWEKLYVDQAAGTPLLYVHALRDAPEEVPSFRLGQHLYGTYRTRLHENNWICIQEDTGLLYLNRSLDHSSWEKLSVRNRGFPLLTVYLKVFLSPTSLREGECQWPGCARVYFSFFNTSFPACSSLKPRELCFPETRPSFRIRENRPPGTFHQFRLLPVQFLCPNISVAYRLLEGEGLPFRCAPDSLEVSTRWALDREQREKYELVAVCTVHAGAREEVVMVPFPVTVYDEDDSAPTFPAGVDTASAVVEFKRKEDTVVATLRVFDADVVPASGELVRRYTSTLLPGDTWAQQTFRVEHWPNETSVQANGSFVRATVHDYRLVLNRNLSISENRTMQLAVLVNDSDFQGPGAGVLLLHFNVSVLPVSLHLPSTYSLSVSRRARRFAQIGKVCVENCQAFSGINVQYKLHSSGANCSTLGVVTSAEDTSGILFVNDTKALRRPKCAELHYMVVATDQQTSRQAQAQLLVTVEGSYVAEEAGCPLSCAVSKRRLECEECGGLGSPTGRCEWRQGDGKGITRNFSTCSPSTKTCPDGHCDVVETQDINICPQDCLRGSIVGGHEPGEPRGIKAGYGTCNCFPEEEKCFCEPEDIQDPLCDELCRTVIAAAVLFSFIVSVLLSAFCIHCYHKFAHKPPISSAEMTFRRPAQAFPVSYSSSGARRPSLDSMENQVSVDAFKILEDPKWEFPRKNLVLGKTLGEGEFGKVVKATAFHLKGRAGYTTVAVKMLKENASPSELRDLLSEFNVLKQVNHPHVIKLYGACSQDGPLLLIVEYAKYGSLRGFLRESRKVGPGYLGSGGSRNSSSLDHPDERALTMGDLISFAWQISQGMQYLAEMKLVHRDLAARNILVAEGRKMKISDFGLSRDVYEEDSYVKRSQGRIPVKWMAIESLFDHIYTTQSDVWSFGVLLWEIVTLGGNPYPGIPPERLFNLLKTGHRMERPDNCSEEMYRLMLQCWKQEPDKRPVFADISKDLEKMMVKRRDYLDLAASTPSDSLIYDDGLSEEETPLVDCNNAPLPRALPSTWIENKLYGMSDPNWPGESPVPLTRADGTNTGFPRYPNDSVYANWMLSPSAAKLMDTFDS
# MEASUREMENT NOTES: Inhibition of recombinant RET (unknown origin) using Poly(Glu:Tyr)4:1 after 60 mins by ELISA
REPORTED METRIC: pIC50
// scale note: pIC50 = -log10(conc_M); give the bare number

Asked: Which pIC50 value is on record for "C=CC(=O)Nc1cc2c(Nc3ccc(F)c(Cl)c3)ncnc2s1" ?
Given back: 5.79

---

IC50 values by entry
# STUDY TARGET: UniProt:P35968
# Sequence (P35968 whole entry): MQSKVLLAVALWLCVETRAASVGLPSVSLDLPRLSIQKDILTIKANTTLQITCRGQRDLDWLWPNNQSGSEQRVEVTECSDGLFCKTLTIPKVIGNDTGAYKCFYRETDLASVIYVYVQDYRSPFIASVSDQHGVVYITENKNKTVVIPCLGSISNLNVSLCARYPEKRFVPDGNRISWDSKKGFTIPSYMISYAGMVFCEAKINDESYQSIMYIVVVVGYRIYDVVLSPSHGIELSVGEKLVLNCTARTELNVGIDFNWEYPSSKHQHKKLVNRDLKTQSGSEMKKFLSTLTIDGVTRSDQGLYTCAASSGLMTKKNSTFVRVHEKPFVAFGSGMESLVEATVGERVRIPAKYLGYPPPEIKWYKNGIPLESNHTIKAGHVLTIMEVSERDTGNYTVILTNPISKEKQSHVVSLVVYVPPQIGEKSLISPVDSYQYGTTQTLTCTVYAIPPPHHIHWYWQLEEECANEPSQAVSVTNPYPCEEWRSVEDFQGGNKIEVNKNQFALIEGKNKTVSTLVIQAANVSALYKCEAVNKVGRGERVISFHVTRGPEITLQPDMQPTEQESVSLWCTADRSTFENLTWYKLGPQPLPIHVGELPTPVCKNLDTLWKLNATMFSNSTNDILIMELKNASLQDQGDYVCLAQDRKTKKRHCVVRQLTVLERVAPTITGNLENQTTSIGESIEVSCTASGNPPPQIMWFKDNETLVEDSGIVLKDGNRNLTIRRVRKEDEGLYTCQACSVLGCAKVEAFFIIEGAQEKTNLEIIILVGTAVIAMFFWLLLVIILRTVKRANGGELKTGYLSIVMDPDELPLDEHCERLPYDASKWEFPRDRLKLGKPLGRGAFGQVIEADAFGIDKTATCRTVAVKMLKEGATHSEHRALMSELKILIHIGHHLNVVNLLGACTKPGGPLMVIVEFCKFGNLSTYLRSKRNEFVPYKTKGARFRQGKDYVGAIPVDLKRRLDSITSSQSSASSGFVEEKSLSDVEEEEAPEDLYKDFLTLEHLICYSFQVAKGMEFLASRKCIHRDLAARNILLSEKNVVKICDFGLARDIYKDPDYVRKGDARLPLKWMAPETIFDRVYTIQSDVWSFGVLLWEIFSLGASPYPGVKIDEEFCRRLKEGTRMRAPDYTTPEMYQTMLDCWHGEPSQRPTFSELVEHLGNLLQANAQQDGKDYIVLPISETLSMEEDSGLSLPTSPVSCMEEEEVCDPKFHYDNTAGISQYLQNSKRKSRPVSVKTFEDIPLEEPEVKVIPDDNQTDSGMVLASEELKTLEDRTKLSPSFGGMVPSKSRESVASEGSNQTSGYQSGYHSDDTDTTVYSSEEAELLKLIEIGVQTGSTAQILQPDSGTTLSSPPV

- COMPOUND: "C=CC(=O)Nc1cc2c(Nc3ccc(F)c(Cl)c3)ncnc2s1"
  IC50: "> 10 µM"

Asked: Which IC50 value is on record for O=C(/C=C/CN1CC2CCC1C(=O)C2)Nc1cc2c(Nc3ccc(F)c(Cl)c3)ncnc2s1 (configuration not stated) ?
Given back: > 10 µM

---

# STUDY TARGET: UniProt:P00533
# Sequence (P00533 whole entry): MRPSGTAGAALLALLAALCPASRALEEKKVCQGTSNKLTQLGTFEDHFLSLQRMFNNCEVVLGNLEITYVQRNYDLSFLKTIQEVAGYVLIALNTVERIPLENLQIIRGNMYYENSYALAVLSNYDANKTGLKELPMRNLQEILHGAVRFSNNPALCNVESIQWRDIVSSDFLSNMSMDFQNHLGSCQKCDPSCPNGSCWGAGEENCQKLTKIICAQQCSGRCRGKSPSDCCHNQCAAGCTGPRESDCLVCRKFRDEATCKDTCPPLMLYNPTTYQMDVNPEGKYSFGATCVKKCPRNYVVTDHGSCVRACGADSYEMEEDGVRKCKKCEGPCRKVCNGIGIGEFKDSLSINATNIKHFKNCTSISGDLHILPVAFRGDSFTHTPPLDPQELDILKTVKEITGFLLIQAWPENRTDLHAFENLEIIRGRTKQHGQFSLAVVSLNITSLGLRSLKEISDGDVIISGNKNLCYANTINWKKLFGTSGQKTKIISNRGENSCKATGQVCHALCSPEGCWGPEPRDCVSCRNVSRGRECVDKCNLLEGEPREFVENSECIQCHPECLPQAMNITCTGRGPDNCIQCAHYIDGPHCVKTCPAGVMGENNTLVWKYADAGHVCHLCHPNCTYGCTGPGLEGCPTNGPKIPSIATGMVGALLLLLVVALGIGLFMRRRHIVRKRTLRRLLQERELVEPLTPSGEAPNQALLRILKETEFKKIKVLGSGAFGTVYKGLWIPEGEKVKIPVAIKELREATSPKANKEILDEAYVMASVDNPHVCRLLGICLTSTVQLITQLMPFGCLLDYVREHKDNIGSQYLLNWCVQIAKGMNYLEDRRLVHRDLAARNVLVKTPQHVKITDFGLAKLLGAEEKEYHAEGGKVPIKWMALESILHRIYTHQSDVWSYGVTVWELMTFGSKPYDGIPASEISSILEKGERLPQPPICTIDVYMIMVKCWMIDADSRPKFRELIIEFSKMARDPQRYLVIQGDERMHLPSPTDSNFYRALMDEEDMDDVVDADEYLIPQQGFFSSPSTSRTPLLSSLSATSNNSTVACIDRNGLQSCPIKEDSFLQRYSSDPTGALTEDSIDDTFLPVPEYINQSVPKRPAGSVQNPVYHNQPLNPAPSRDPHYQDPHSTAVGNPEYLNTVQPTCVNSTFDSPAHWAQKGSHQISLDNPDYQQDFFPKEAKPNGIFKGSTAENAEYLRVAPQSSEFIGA
pIC50 values by entry
// scale note: pIC50 = -log10(conc_M); give the bare number

- COMPOUND: "O=C(/C=C/CN1CCC(F)(F)CC1)Nc1cc2c(Nc3ccc(F)c(Cl)c3)ncnc2s1"
  pIC50: 8.15
- COMPOUND: "O=C(/C=C/CN1CCC2(CC1)OCCO2)Nc1cc2c(Nc3ccc(F)c(Cl)c3)ncnc2s1"
  pIC50: 8.70
- COMPOUND: "O=C(/C=C/CN1CC2(CCOCC2)C1)Nc1cc2c(Nc3ccc(F)c(Cl)c3)ncnc2s1"
  pIC50: 5.67
- COMPOUND: "CCN(CC)C/C=C/C(=O)Nc1cc2c(Nc3ccc(F)c(Cl)c3)ncnc2s1"
  pIC50: 8.10

Asked: Which pIC50 value is on record for "CN1CCN(C/C=C/C(=O)Nc2cc3c(Nc4ccc(F)c(Cl)c4)ncnc3s2)CC1" ?
Given back: 6.91

Asked: Which pIC50 value is on record for "CN(C)C/C=C/C(=O)Nc1cc2c(Nc3ccc(F)c(Cl)c3)ncnc2s1" ?
Given back: 7.62

Asked: Which pIC50 value is on record for "O=C(/C=C/CNCC1COC1)Nc1cc2c(Nc3ccc(F)c(Cl)c3)ncnc2s1" ?
Given back: 8.00

Asked: Which pIC50 value is on record for "O=C(/C=C/CN1CCOCC1)Nc1cc2c(Nc3ccc(F)c(Cl)c3)ncnc2s1" ?
Given back: 8.52

Asked: Which pIC50 value is on record for "O=C(/C=C/CN1CC2(COC2)C1)Nc1cc2c(Nc3ccc(F)c(Cl)c3)ncnc2s1" ?
Given back: 8.15

Asked: Which pIC50 value is on record for "O=C(CCl)Nc1cc2c(Nc3ccc(F)c(Cl)c3)ncnc2s1" ?
Given back: 7.40

Asked: Which pIC50 value is on record for "CN(C)CCN(C)CC(=O)Nc1cc2c(Nc3ccc(F)c(Cl)c3)ncnc2s1" ?
Given back: 5.37

Asked: Which pIC50 value is on record for O=C(/C=C/CN1CC2CCC1C(=O)C2)Nc1cc2c(Nc3ccc(F)c(Cl)c3)ncnc2s1 (stereo not drawn) ?
Given back: 9.05

Asked: Which pIC50 value is on record for "CCN(CC)CCN(C)C/C=C/C(=O)Nc1cc2c(Nc3ccc(F)c(Cl)c3)ncnc2s1" ?
Given back: 6.86

Asked: Which pIC50 value is on record for "O=C(/C=C/CNCc1ncccn1)Nc1cc2c(Nc3ccc(F)c(Cl)c3)ncnc2s1" ?
Given back: 8.10
